System: Huvec
Experiment: bFGF Huvec proliferation
Assay type: cell-based, human
Conditions: Homo sapiens, HUVEC
Form field: IC50 (one value per entry).
Output spec: scalar in nM, unitless text.

Cc1c(C(=O)NCCCO)c2ccc(Oc3ccnc4cc(C(=O)N5CC[C@@H](O)C5)sc34)cc2n1C [Example 64]; 10000
Cc1sc2cc(Oc3ccnc4cc(-c5nc(CO)cs5)sc34)ccc2c1C(=O)NC1CC1 [Example 129]; 100
CCCNC(=O)c1c(C)oc2cc(Oc3ccnc4cc(C(=O)N5CC[C@@H](OC)C5)sc34)ccc12 [Example 92]; 13
Cc1sc2cc(Oc3ccnc4cc(C(=O)N5CCC5)sc34)ccc2c1C(=O)NC1CC1 [Example 127]; 41
CNC(=O)c1c(C)sc2cc(Oc3ccnc4cc(C(=O)N5C[C@@H](O)[C@@H](O)C5)sc34)ccc12 [Example 7]; 2470
Cc1c(C(=O)NCCCO)c2ccc(Oc3ccnc4cc(C(=O)N5CCC5)sc34)cc2n1C [Example 63]; 10000
CNC(=O)c1c(C)oc2cc(Oc3ccnc4cc(C(=O)N5CC[C@@H](OC)C5)sc34)ccc12 [Example 12]; 20

Could you now consider this next compound?
Summary: CNC(=O)c1c(C)sc2cc(Oc3ccnc4cc(-c5nccn5C)sc34)ccc12 [Example 1] , Huvec, IC50 = 122

###

Target: unphosphorylated VEGF-R2Δ50 (FLVK) (Homo sapiens, UniProt P35968, DEL940-989/E990V)
Construct: VEGF-R2Δ50 contains residues 806–939 and 990–1171
Sequence (P35968 with tags, fused parts or gaps DEL940-989/E990V limits assumed): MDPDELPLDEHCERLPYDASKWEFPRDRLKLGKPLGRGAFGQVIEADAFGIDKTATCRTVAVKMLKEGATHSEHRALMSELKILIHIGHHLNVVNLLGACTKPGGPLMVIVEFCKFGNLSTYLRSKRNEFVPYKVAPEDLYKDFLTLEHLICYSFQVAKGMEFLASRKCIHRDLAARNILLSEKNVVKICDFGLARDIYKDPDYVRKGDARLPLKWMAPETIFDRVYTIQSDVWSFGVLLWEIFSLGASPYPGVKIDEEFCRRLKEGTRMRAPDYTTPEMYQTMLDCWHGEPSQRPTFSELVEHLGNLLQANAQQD
Assay: VEGF-R2 coupled spectrophotometric assay, unphosphorylated VEGF-R2Δ50 (FLVK)
Conditions: unphosphorylated VEGF-R2Δ50
Experimental: VEGF-R2 Construct for Assay: This construct determines the ability of a test compound to inhibit tyrosine kinase activity. […] The production of ADP from ATP that accompanies phosphoryl transfer was coupled to oxidation of NADH using phosphoenolpyruvate (PEP) and a system having pyruvate kinase (PK) and lactic dehydrogenase (LDH). The oxidation of NADH was monitored by following the decrease of absorbance at 340 nm (e340=6.22 cm^−1 mM^−1) using a Beckman DU 650 spectrophotometer. […]
Catalogue of compounds with associated Ki
Numeric answer only, unit nM assumed.

Worked examples, 3 compounds total:
CNC(=O)c1c(C)n(C)c2cc(Oc3ccnc4cc(C(=O)N5CC[C@@H](NC)C5)sc34)ccc12; 35.2
Cc1c(C(=O)NC2CC2)c2ccc(Oc3ccnc4cc(C(=O)N5CCC[C@H]5CO)sc34)cc2n1C; 1.71
CNC(=O)c1c(C)sc2cc(Oc3ccnc4cc(C(=O)N5CCC[C@H]5COC)sc34)ccc12; 4.14

The recorded Ki for CNC(=O)c1c(C)sc2cc(Oc3ccnc4cc(C(=O)N5C[C@H](OC)[C@H](OC)C5)sc34)ccc12 is 1.91

Entry Cc1sc2cc(Oc3ccnc4cc(-c5nccn5C)sc34)ccc2c1C(=O)NCCCO ; Ki = 1.2

###

System: Huvec
Test: bFGF Huvec proliferation
Format: cell-based, human
Details: Homo sapiens, HUVEC
measured-property: log10 IC50 (log10 of the value in nM)
Annotation: log10 of IC50, nM basis.

CNC(=O)c1c(C)oc2cc(Oc3ccnc4cc(-c5nc(CO)cs5)sc34)ccc12; 1.41
Cc1oc2cc(Oc3ccnc4ccsc34)ccc2c1C(=O)NCCc1c[nH]c2cc(F)ccc12; 2.36
CCCNC(=O)c1c(C)n(C)c2cc(Oc3ccnc4cc(C(=O)N5CC[C@@H](O)C5)sc34)ccc12; 3.06
CCc1sc2cc(Oc3ccnc4cc(C(=O)N5CC[C@@H](OC)C5)sc34)ccc2c1C(=O)NC; 2.75
CCc1oc2cc(Oc3ccnc4cc(C(=O)N5CC[C@@H](OC)C5)sc34)ccc2c1C(=O)NC; 2.46
Cc1oc2cc(Oc3ccnc4ccsc34)ccc2c1C(=O)Nc1ccc(N2CCOCC2)nc1; 3.24

Per the record, CO[C@@H]1CCN(C(=O)c2cc3nccc(Oc4ccc5c(C(=O)NCC6CC6)c(C)sc5c4)c3s2)C1 has log10 IC50 of 2.99

Lookup result for Cc1sc2cc(Oc3ccnc4cc(C(=O)N5CCC5)sc34)ccc2c1C(=O)NCC1CC1 ; measured log10 IC50: 2.41

###

Test system: Huvec
Experiment: bFGF Huvec proliferation
Type: cell-based, human
Conditions: Homo sapiens, HUVEC
Listed molecules paired with reported IC50
Kindly provide the numeric value in nM only, without the unit symbol.

Cc1sc2cc(Oc3ccnc4cc(C(=O)N5CC[C@@H](O)C5)sc34)ccc2c1C(=O)NC1CC1; 100
Cc1sc2cc(Oc3ccnc4cc(-c5nc(CO)cs5)sc34)ccc2c1C(=O)NCC1CC1; 100
CNC(=O)c1c(C)sc2cc(Oc3ccnc4cc(C(=O)N5CC(O)C5)sc34)ccc12; 135
Cc1sc2cc(Oc3ccnc4cc(-c5nccn5C)sc34)ccc2c1C(=O)NCC1CC1; 1830
COC[C@@H]1CCCN1C(=O)c1cc2nccc(Oc3ccc4c(C(=O)NCC(C)C)c(C)oc4c3)c2s1 (stereo in doubt); 6990
Cc1sc2cc(Oc3ccnc4cc(C(=O)N5CC[C@@H](O)C5)sc34)ccc2c1C(=O)NCC1CC1; 5660

// returns IC50 for CNC(=O)c1c(C)[nH]c2cc(Oc3ccnc4cc(C(=O)N5CC[C@@H](O)C5)sc34)ccc12 with Huvec; value = 10000

###

# reported IC50; entries follow
System: Huvec
Test: bFGF Huvec proliferation
Assay type: cell-based, human
Details: Homo sapiens, HUVEC

Examples from the recorded data:
Cc1oc2cc(Oc3ccnc4cc(C(=O)N5CC[C@@H](O)C5)sc34)ccc2c1C(=O)NCC(C)C [Example 88]; 363 nM
CNC(=O)c1c(C)sc2cc(Oc3ccnc4cc(C(=O)N5CCC[C@H]5CO)sc34)ccc12 [Example 3]; 942 nM
Cc1c(C(=O)Nc2ccccn2)c2ccc(Oc3ccnc4cc(-c5nccs5)sc34)cc2n1C [Example 70]; 3980 nM

Memo: Cc1c(C(=O)NCC2CC2)c2ccc(Oc3ccnc4cc(C(=O)N5CC[C@@H](O)C5)sc34)cc2n1C [Example 56] , reported IC50: 10000 nM

Reported IC50 ( CNC(=O)c1c(C)n(C)c2cc(Oc3ccnc4cc(-c5ccncc5)sc34)ccc12 [Example 38] ) = 10000 nM

###

Experiment: Mouse PK assay
Type: in vivo
Conditions: 50 mg/kg, B6 female mice, plasma
Procedure: The pharmacokinetics (e.g., absorption and elimination) of drugs in mice were analyzed using the following experiment. Test compounds were formulated as a suspension in a 30:70 (PEG 400:acidified H2O) vehicle. […] Test-compound plasma concentrations (μg/mL) were determined by a comparison to standard curve (peak area vs. conc. μg/mL) using known concentrations of test compound extracted from plasma samples in the manner described above. […]
Entries whose mouse Cmin, po is below 300 ng/mL take 1 (yes); entries at or above 300 ng/mL take 0 (no).

Some entries whose results are on file:
CNC(=O)c1c(C)oc2cc(Oc3ccnc4cc(C(=O)N5CC[C@@H](OC)C5)sc34)ccc12; 1 (yes)
CNC(=O)c1c(C)n(C)c2cc(Oc3ccnc4cc(C(=O)N5CC[C@@H](O)C5)sc34)ccc12; 1 (yes)
CNC(=O)c1c(C)sc2cc(Oc3ccnc4cc(C(=O)N5CCC[C@H]5CO)sc34)ccc12; 1 (yes)
CNC(=O)c1c(C)sc2cc(Oc3ccnc4cc(-c5nccn5C)sc34)ccc12; 0 (no)

Threshold test, mouse Cmin, po < 300 ng/mL: CNC(=O)c1c(C)sc2cc(Oc3ccnc4cc(C(=O)N5CC[C@@H](O)C5)sc34)ccc12
1 (yes)

For CNC(=O)c1c(C)n(C)c2cc(Oc3ccnc4cc(C(=O)N5CC[C@@H](OC)C5)sc34)ccc12 , is the recorded mouse Cmin, po below the cut-off of 300 ng/mL?
0 (no)

Could you please tell me whether mouse Cmin, po recorded for CNC(=O)c1c(C)n(C)c2cc(Oc3ccnc4cc(-c5nccn5C)sc34)ccc12 is less than 300 ng/mL?
0 (no)

Answer whether the molecule CNC(=O)c1c(C)sc2cc(Oc3ccnc4cc(C(=O)N5CC[C@@H](OC)C5)sc34)ccc12 has mouse Cmin, po strictly less than 300 ng/mL
1 (yes)

###

Target: PDGFRβ (Homo sapiens, UniProt P09619)
Construct: expressed in transfected cells; host or cells: porcine aorta endothelial (PAE)-PDGFRβ cells
Sequence (P09619 33-1106): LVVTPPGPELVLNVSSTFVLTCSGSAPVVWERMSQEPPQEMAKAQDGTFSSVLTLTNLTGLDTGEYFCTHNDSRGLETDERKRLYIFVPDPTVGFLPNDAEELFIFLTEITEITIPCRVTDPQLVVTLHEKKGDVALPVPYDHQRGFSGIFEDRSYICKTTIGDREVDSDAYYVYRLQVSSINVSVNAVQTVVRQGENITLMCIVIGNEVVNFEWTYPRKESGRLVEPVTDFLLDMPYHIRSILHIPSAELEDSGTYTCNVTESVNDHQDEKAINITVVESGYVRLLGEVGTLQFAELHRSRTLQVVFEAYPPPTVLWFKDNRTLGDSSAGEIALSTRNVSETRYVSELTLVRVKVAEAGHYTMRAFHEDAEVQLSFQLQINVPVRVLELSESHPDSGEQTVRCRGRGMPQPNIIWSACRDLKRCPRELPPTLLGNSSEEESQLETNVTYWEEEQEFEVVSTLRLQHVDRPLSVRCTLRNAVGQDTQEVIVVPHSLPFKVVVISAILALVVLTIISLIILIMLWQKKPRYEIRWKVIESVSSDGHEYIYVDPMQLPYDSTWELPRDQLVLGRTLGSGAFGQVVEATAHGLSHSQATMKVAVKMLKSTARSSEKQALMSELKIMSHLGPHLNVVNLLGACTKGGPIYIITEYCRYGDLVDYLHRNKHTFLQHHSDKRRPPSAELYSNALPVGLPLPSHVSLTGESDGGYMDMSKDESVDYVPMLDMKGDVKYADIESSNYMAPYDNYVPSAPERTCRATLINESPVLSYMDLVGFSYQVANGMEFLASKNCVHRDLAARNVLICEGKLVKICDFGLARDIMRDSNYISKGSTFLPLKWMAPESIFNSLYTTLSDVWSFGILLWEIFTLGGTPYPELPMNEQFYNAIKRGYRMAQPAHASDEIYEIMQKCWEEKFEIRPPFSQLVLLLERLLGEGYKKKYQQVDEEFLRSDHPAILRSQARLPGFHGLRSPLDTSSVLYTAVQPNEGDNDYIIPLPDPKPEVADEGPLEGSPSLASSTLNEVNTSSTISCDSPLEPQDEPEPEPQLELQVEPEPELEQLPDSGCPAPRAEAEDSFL
Assay: PAE-PDGFRβ phosphorylation in PAE-PDGFRB cells assay
Assay type: cell-based
Details: PAE cells overexpressing human PDGFRβ, PDGF-BB stimulated; read-out: PAE PDGFR autophos IC50 (nM) AVG
measured-property: log10(IC50) (log10 of the value in nM)
Plainly stated, the numbers are log10 of IC50 given in nM.

CO[C@@H]1CCN(C(=O)c2cc3nccc(Oc4ccc5c(C(=O)NCCN6CCOCC6)c(C)oc5c4)c3s2)C1 [Example 90]; 1.52

GET /value?item= CCc1oc2cc(Oc3ccnc4cc(C(=O)N5CCC5)sc34)ccc2c1C(=O)NC [Example 98] &field=log10(IC50) returns 2.10

Sample CNC(=O)c1c(C)sc2cc(Oc3ccnc4cc(-c5ccnn5C)sc34)ccc12 [Example 10] ; log10(IC50) observed: 2.65

The molecule identified as CNC(=O)c1c(C)sc2cc(Oc3ccnc4cc(C(=O)N5CCC[C@H]5CO)sc34)ccc12 [Example 3] registered its log10(IC50) at 2.88

What the record says about CCCCNC(=O)c1c(C)oc2cc(Oc3ccnc4ccsc34)ccc12 [Example 105] : log10(IC50) is 2.10

Form field log10(IC50), entry COC[C@@H]1CCCN1C(=O)c1cc2nccc(Oc3ccc4c(C(=O)NCC5CC5)c(C)sc4c3)c2s1 [Example 132] : 2.67
